Reported values of IC50 for individual entries
Tested on: SW48 (wt) cells
Experiment: Cell viability assay (CELLTITER-GLO), SW48 cells
Assay type: cell-based
Details: Homo sapiens, 72 h, 3 days incubation, 2.5% fetal bovine serum, read-out: Inhibition of Cancerous Cells IC50 (μM) SW48 (wt)
Method: H358, H23, SW48, and AsPC-1 cells were cultured in RPMI 1640 media supplemented with 10% fetal bovine serum, streptomycin, and penicillin. Lovo and SW480 cells were cultured in DMEM media supplemented with 10% fetal bovine serum, streptomycin, and penicillin. The cell lines were plated in their respective medium supplemented with 2.5% fetal bovine serum, streptomycin, and penicillin. […] After a 10 min incubation with shaking, luminescence was measured using an ENVISION® multimode plate reader. […]
Please reply with the bare figure in µM and do not write the unit itself.

Consider the reported IC50 for these molecules:
molecule | value
Cc1nn2c(N3CCN(CCO)CC3)cc(-c3ccccc3)nc2c1-c1cccc(CCCCCCCN2CCN(C(=O)CNc3ccc4c(N5CCC(=O)NC5=O)nn(C)c4c3)CC2)c1 | 1.1
Cc1nn2c(N3CCN(CCO)CC3)cc(-c3ccccc3)nc2c1-c1ccccc1 [Compound T1, reference compound] | 1.9
Cc1nn2c(N3CCN(CCO)CC3)cc(-c3ccccc3)nc2c1-c1cccc(CCCCCCCCCN2CCN(C(=O)COc3cccc(N4CCC(=O)NC4=O)c3)CC2)c1 | 0.73
Cc1nn2c(N3CCN(CCO)CC3)cc(-c3ccccc3)nc2c1-c1cccc(CCCCCN2CCN(C(=O)CNc3ccc4c(C5CCC(=O)NC5=O)nn(C)c4c3)CC2)c1 (stereo not drawn) | 0.72
Cc1nn2c(N3CCN(CCO)CC3)cc(-c3ccccc3)nc2c1-c1cccc(CCCN2CCN(C(=O)CNc3ccc4c(N5CCC(=O)NC5=O)nn(C)c4c3)CC2)c1 | 2

input: What value of measured IC50 is listed for `Cc1nn2c(N3CCN(CCO)CC3)cc(-c3ccccc3)nc2c1-c1cccc(CCCCCCCN2CCN(C(=O)COc3ccc(N4CCC(=O)NC4=O)cc3)CC2)c1` ?
output: 0.66

This collection of values is drawn from patent US20240190883A1.
